// data source = paper PMC12796986

system: VACV-Gluc reporter virus; test: microbe, parasite or virus in culture; format: cell-based, vaccinia virus; conditions: Orthopoxvirus vaccinia, HFF, 24 h, read-out: VACV EC50
pEC50: −log10 of the molar value.
Please note: y applies when pEC50 is 6 or greater, and n applies otherwise.

[[record]]
molecule = "CCc1c(O)c2cc(-c3ccc(-c4ccccc4)cc3)cnc2n(O)c1=O"
cat = "y"

[[record]]
molecule = "CCc1c(O)c2cc(-c3ccc(Oc4ccccc4)cc3)cnc2n(O)c1=O"
cat = "n"

[[record]]
molecule = "O=c1cc(O)c2c(-c3cccc(-c4ccccc4)c3)ccnc2n1O"
cat = "n"

[[record]]
molecule = "COc1ccc(-c2cnc3c(c2)c(O)c(-c2ccccc2)c(=O)n3O)cc1F"
cat = "n"

[[record]]
molecule = "CCCCCCCCCCCCCCCCOCCCOP(=O)(O)CO[C@H](CO)Cn1ccc(N)nc1=O [Brincidofovir, brincidofovir, reference compound]"
cat = "y"

[[record]]
molecule = "O=c1c(-c2ccccc2)c(O)c2c(-c3cccc(-c4ccccc4)c3)ccnc2n1O"
cat = "y"

[[record]]
molecule = "O=c1c(-c2ccccc2)c(O)c2cc(-c3ccccc3)cnc2n1O"
cat = "n"


* * *

experiment: in vitro; settings: PAMPA
As shown below, each of these molecules has a reported Papp value.
Measurement kind: Papp (×10⁻⁶ cm/s)

[[record]]
smiles_repr = "O=c1c(-c2ccccc2)c(O)c2cc(-c3cccc(-c4ccccc4)c3)cnc2n1O"
uom = "×10⁻⁶ cm/s"
result_number = 6

[[record]]
smiles_repr = "O=c1c(-c2ccccc2)c(O)c2c(-c3cccc(-c4ccccc4)c3)ccnc2n1O"
uom = "×10⁻⁶ cm/s"
result_number = 9

[[record]]
smiles_repr = "O=c1c(-c2ccccc2)c(O)c2cc(-c3ccc(Oc4ccccc4)cc3)cnc2n1O"
uom = "×10⁻⁶ cm/s"
result_number = 8.6

[[record]]
smiles_repr = "CCc1c(O)c2cc(-c3ccc(-c4ccccc4)cc3)cnc2n(O)c1=O"
uom = "×10⁻⁶ cm/s"
result_number = 3.8

[[record]]
smiles_repr = "CCc1c(O)c2cc(-c3ccc(Oc4ccccc4)cc3)cnc2n(O)c1=O"
uom = "×10⁻⁶ cm/s"
result_number = 5.2


* * *

biological target: mpox resolvase (Mpr) (Monkeypox virus, UniProt A0A7H0DNC1); assay: biochemical; format: biochemical
Sequence (A0A7H0DNC1 whole entry, looked up): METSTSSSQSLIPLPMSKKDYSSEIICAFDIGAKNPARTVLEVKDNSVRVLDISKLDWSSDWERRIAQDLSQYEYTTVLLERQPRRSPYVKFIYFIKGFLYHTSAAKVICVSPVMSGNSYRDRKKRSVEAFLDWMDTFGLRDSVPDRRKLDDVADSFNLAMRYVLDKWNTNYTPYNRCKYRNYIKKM
Measurement kind: fluorescence quenching in the FRET assay

[[record]]
smiles_repr = "CC(=O)c1ccc(-c2cnc3c(c2)c(O)c(-c2ccccc2)c(=O)n3O)s1"
result = "fluorescence quenching"

[[record]]
smiles_repr = "O=c1c(-c2ccccc2)c(O)c2cc(-c3c(F)cc(F)cc3F)cnc2n1O"
result = "fluorescence quenching"

[[record]]
smiles_repr = "O=c1c(-c2ccccc2)c(O)c2cc(-c3ccc(F)cc3F)cnc2n1O"
result = "fluorescence quenching"


* * *

As shown below, each of these compounds has a reported SI (selectivity index, CC50 / EC50) value.
test system: VACV-Gluc reporter virus; assay: microbe, parasite or virus in culture; type: cell-based, vaccinia virus
Measurement kind: SI (selectivity index, CC50 / EC50)

[[record]]
compound = "CCc1c(O)c2cc(-c3ccc(Oc4ccccc4)cc3)cnc2n(O)c1=O [4b-3]"
measurement_kind = "SI (selectivity index, CC50 / EC50)"
result = ">1.5 × 10^2"

[[record]]
compound = "O=c1c(-c2ccccc2)c(O)c2cc(-c3ccccc3)cnc2n1O [4a-5]"
measurement_kind = "SI (selectivity index, CC50 / EC50)"
result = ">1.0 × 10^2"

[[record]]
compound = "O=c1c(-c2ccccc2)c(O)c2cc(-c3cccc(-c4ccccc4)c3)cnc2n1O [compound 3]"
measurement_kind = "SI (selectivity index, CC50 / EC50)"
result = ">1.9 × 10^2"

[[record]]
compound = "O=c1c(-c2ccccc2)c(O)c2cc(-c3ccc(Oc4ccccc4)cc3)cnc2n1O [4a-3]"
measurement_kind = "SI (selectivity index, CC50 / EC50)"
result = ">1.9 × 10^2"

[[record]]
compound = "COc1ccc(-c2cnc3c(c2)c(O)c(-c2ccccc2)c(=O)n3O)cc1F [4a-10]"
measurement_kind = "SI (selectivity index, CC50 / EC50)"
result = ">26"

[[record]]
compound = "CCCCCCCCCCCCCCCCOCCCOP(=O)(O)CO[C@H](CO)Cn1ccc(N)nc1=O [Brincidofovir, brincidofovir, reference compound]"
measurement_kind = "SI (selectivity index, CC50 / EC50)"
result = ">3 × 10^4"

[[record]]
compound = "CCc1c(O)c2cc(-c3ccc(-c4ccccc4)cc3)cnc2n(O)c1=O [4b-2]"
measurement_kind = "SI (selectivity index, CC50 / EC50)"
result = ">6.4 × 10^2"

[[record]]
compound = "O=c1c(-c2ccccc2)c(O)c2c(-c3cccc(-c4ccccc4)c3)ccnc2n1O [5-1]"
measurement_kind = "SI (selectivity index, CC50 / EC50)"
result = "4.7 × 10^4"


* * *

assay: in vitro; details: human, microsomes, pH 7.4
As shown below, each of these compounds has a reported half-life value.
Measurement kind: half-life (min)

[[record]]
smiles_repr = "CCc1c(O)c2cc(-c3ccc(-c4ccccc4)cc3)cnc2n(O)c1=O"
measurement_kind = "half-life"
comparative_sign = ">"
result_number = 120

[[record]]
smiles_repr = "O=c1c(-c2ccccc2)c(O)c2cc(-c3ccc(Oc4ccccc4)cc3)cnc2n1O"
measurement_kind = "half-life"
comparative_sign = "="
result_number = 42.9

[[record]]
smiles_repr = "O=c1c(-c2ccccc2)c(O)c2c(-c3cccc(-c4ccccc4)c3)ccnc2n1O"
measurement_kind = "half-life"
comparative_sign = ">"
result_number = 120

[[record]]
smiles_repr = "O=c1c(-c2ccccc2)c(O)c2cc(-c3cccc(-c4ccccc4)c3)cnc2n1O"
measurement_kind = "half-life"
comparative_sign = ">"
result_number = 120

[[record]]
smiles_repr = "CCc1c(O)c2cc(-c3ccc(Oc4ccccc4)cc3)cnc2n(O)c1=O"
measurement_kind = "half-life"
comparative_sign = "="
result_number = 35.2


* * *

assay: physchem; conditions: pH 7.2, aqueous buffer, kinetic from dmso stock
Measurement kind: solubility (µM)

[[record]]
compound = "O=c1c(-c2ccccc2)c(O)c2cc(-c3ccc(Oc4ccccc4)cc3)cnc2n1O [4a-3]"
measurement_kind = "solubility"
uom = "µM"
result_number = 86

[[record]]
compound = "O=c1c(-c2ccccc2)c(O)c2cc(-c3cccc(-c4ccccc4)c3)cnc2n1O [compound 3]"
measurement_kind = "solubility"
uom = "µM"
result_number = 130

[[record]]
compound = "CCc1c(O)c2cc(-c3ccc(Oc4ccccc4)cc3)cnc2n(O)c1=O [4b-3]"
measurement_kind = "solubility"
uom = "µM"
result_number = 47

[[record]]
compound = "CCc1c(O)c2cc(-c3ccc(-c4ccccc4)cc3)cnc2n(O)c1=O [4b-2]"
measurement_kind = "solubility"
uom = "µM"
result_number = 1.4

[[record]]
compound = "O=c1c(-c2ccccc2)c(O)c2c(-c3cccc(-c4ccccc4)c3)ccnc2n1O [5-1]"
measurement_kind = "solubility"
uom = "µM"
result_number = 130


* * *

target: mpox resolvase (Mpr) (Monkeypox virus); assay: biochemical; assay type: biochemical; conditions: read-out: Mpr IC50
Measurement kind: IC50 (µM)

[[record]]
compound = "NC(=O)c1cccc(-c2cnc3c(c2)c(O)cc(=O)n3O)c1 [4c-12]"
measurement_kind = "IC50"
result_number = 15


* * *

target: mpox resolvase (Mpr) (Monkeypox virus, UniProt A0A7H0DNC1); test: biochemical; format: biochemical
Measurement kind: IC50 (nM)

[[record]]
compound = "O=c1c(-c2ccccc2)c(O)c2cc(-c3ccc(C(F)(F)F)cc3)cnc2n1O [4a-7]"
measurement_kind = "IC50"
comparative_sign = "="
result_number = 600

[[record]]
compound = "CCc1c(O)c2cc(-c3ccc4cc(OC)ccc4c3)cnc2n(O)c1=O [4b-4]"
measurement_kind = "IC50"
comparative_sign = "="
result_number = 1600

[[record]]
compound = "CCc1c(O)c2cc(-c3ccc(OC)c(F)c3)cnc2n(O)c1=O [4b-10]"
measurement_kind = "IC50"
comparative_sign = "="
result_number = 5000

[[record]]
compound = "NS(=O)(=O)c1ccc(-c2cnc3c(c2)c(O)c(-c2ccccc2)c(=O)n3O)cc1 [4a-21]"
measurement_kind = "IC50"
comparative_sign = "="
result_number = 1500

[[record]]
compound = "CCc1c(O)c2cc(-c3ccsc3)cnc2n(O)c1=O [4b-11]"
measurement_kind = "IC50"
comparative_sign = "="
result_number = 3900

[[record]]
compound = "COc1ccc(-c2cnc3c(c2)c(O)c(-c2ccccc2)c(=O)n3O)cc1F [4a-10]"
measurement_kind = "IC50"
comparative_sign = "="
result_number = 1600

[[record]]
compound = "Cc1ccc(-c2cnc3c(c2)c(O)c(-c2ccccc2)c(=O)n3O)cc1 [4a-16]"
measurement_kind = "IC50"
comparative_sign = "="
result_number = 1900

[[record]]
compound = "CSc1cccc(-c2cnc3c(c2)cc(-c2ccccc2)c(=O)n3O)c1 [6-2]"
measurement_kind = "IC50"
comparative_sign = ">"
result_number = 50000

[[record]]
compound = "O=c1c(-c2ccccc2)c(O)c2cc(-c3ccc(-c4ccccc4)cc3)cnc2n1O [4a-2]"
measurement_kind = "IC50"
comparative_sign = "="
result_number = 250

[[record]]
compound = "O=c1c(-c2ccccc2)cc2cc(-c3cccc(-c4ccccc4)c3)cnc2n1O [6-1]"
measurement_kind = "IC50"
comparative_sign = ">"
result_number = 50000

[[record]]
compound = "CCc1c(O)c2cc(-c3ccccc3F)cnc2n(O)c1=O [4b-6]"
measurement_kind = "IC50"
comparative_sign = "="
result_number = 2100

[[record]]
compound = "CCc1c(O)c2cc(-c3ccc(Oc4ccccc4)cc3)cnc2n(O)c1=O [4b-3]"
measurement_kind = "IC50"
comparative_sign = "="
result_number = 320

[[record]]
compound = "O=c1c(-c2ccccc2)c(O)c2cc(-c3cccnc3)cnc2n1O [4a-25]"
measurement_kind = "IC50"
comparative_sign = "="
result_number = 12000

[[record]]
compound = "O=c1c(-c2ccccc2)c(O)c2cc(-c3cccc(-c4ccccc4)c3)cnc2n1O [compound 3]"
measurement_kind = "IC50"
comparative_sign = "="
result_number = 340

[[record]]
compound = "CCc1c(O)c2cc(-c3cccc(-c4ccccc4)c3)cnc2n(O)c1=O [4b-1]"
measurement_kind = "IC50"
comparative_sign = "="
result_number = 800

[[record]]
compound = "CSc1ccc(-c2cnc3c(c2)c(O)c(-c2ccccc2)c(=O)n3O)cc1 [4a-8]"
measurement_kind = "IC50"
comparative_sign = "="
result_number = 370

[[record]]
compound = "COc1ccc(-c2cnc3c(c2)c(O)cc(=O)n3O)cc1F [4c-10]"
measurement_kind = "IC50"
comparative_sign = "="
result_number = 2500

[[record]]
compound = "O=c1c(-c2ccccc2)c(O)c2cc(-c3ccc(C(F)(F)F)cc3C(F)(F)F)cnc2n1O [4a-23]"
measurement_kind = "IC50"
comparative_sign = "="
result_number = 2700

[[record]]
compound = "CSc1ccc(-c2ccnc3c2c(O)cc(=O)n3O)cc1 [5-4]"
measurement_kind = "IC50"
comparative_sign = "="
result_number = 120

[[record]]
compound = "CCc1c(O)c2cc(-c3ccc(-c4ccccc4)cc3)cnc2n(O)c1=O [4b-2]"
measurement_kind = "IC50"
comparative_sign = "="
result_number = 360

[[record]]
compound = "O=c1cc(O)c2cc(-c3ccccc3)cnc2n1O [4c-5]"
measurement_kind = "IC50"
comparative_sign = "="
result_number = 1800

[[record]]
compound = "COc1ccc(OC)c(-c2cnc3c(c2)c(O)cc(=O)n3O)c1 [4c-9]"
measurement_kind = "IC50"
comparative_sign = "="
result_number = 1600

[[record]]
compound = "O=c1cc(O)c2cc(Br)cnc2n1O [4c-14]"
measurement_kind = "IC50"
comparative_sign = "="
result_number = 9000

[[record]]
compound = "O=c1c(-c2ccccc2)c(O)c2cc(-c3cncnc3)cnc2n1O [4a-26]"
measurement_kind = "IC50"
comparative_sign = "="
result_number = 15000

[[record]]
compound = "O=c1c(-c2ccccc2)c(O)c2cc(-c3ccccc3F)cnc2n1O [4a-6]"
measurement_kind = "IC50"
comparative_sign = "="
result_number = 1100

[[record]]
compound = "O=c1cc(O)c2cc(-c3ccccc3F)cnc2n1O [4c-6]"
measurement_kind = "IC50"
comparative_sign = "="
result_number = 1000

[[record]]
compound = "COc1ccc2cc(-c3cnc4c(c3)c(O)cc(=O)n4O)ccc2c1 [4c-4]"
measurement_kind = "IC50"
comparative_sign = "="
result_number = 240

[[record]]
compound = "O=c1c(-c2ccccc2)c(O)c2cc(-c3ccco3)cnc2n1O [4a-27]"
measurement_kind = "IC50"
comparative_sign = "="
result_number = 4000

[[record]]
compound = "N#Cc1ccc(-c2cnc3c(c2)c(O)c(-c2ccccc2)c(=O)n3O)cc1 [4a-20]"
measurement_kind = "IC50"
comparative_sign = "="
result_number = 1900

[[record]]
compound = "O=c1c(-c2ccccc2)c(O)c2cc(-c3ccc(O)cc3)cnc2n1O [4a-15]"
measurement_kind = "IC50"
comparative_sign = "="
result_number = 1500

[[record]]
compound = "COc1ccc2cc(-c3cnc4c(c3)c(O)c(-c3ccccc3)c(=O)n4O)ccc2c1 [4a-4]"
measurement_kind = "IC50"
comparative_sign = "="
result_number = 970

[[record]]
compound = "O=c1c(-c2ccccc2)c(O)c2cc(C3CC3)cnc2n1O [4a-30]"
measurement_kind = "IC50"
comparative_sign = "="
result_number = 8000

[[record]]
compound = "CCc1c(O)c2cc(-c3ccccc3)cnc2n(O)c1=O [4b-5]"
measurement_kind = "IC50"
comparative_sign = "="
result_number = 5300

[[record]]
compound = "O=c1c(-c2ccccc2)c(O)c2c(-c3cccc(-c4ccccc4)c3)ccnc2n1O [5-1]"
measurement_kind = "IC50"
comparative_sign = "="
result_number = 36

[[record]]
compound = "O=c1c(-c2ccccc2)c(O)c2cc(-c3ccccc3)cnc2n1O [4a-5]"
measurement_kind = "IC50"
comparative_sign = "="
result_number = 900

[[record]]
compound = "O=c1c(-c2ccccc2)c(O)c2cccnc2n1O [4a-31]"
measurement_kind = "IC50"
comparative_sign = "="
result_number = 17000

[[record]]
compound = "O=c1cc(O)c2cc(-c3ccc(C(F)(F)F)cc3)cnc2n1O [4c-7]"
measurement_kind = "IC50"
comparative_sign = "="
result_number = 470

[[record]]
compound = "CSc1cccc(-c2cnc3c(c2)c(O)c(-c2ccccc2)c(=O)n3O)c1 [4a-17]"
measurement_kind = "IC50"
comparative_sign = "="
result_number = 600

[[record]]
compound = "O=c1c(-c2ccccc2)c(O)c2cc(-c3ccc(Oc4ccccc4)cc3)cnc2n1O [4a-3]"
measurement_kind = "IC50"
comparative_sign = "="
result_number = 120

[[record]]
compound = "COc1ccc(OC)c(-c2cnc3c(c2)c(O)c(-c2ccccc2)c(=O)n3O)c1 [4a-9]"
measurement_kind = "IC50"
comparative_sign = "="
result_number = 1400

